All figures here come from patent US11267824B2.

MEASUREMENT_TARGET: Recombinant full-length human IDO1 (Homo sapiens (Human), UniProt P14902)
Sequence (P14902 whole entry): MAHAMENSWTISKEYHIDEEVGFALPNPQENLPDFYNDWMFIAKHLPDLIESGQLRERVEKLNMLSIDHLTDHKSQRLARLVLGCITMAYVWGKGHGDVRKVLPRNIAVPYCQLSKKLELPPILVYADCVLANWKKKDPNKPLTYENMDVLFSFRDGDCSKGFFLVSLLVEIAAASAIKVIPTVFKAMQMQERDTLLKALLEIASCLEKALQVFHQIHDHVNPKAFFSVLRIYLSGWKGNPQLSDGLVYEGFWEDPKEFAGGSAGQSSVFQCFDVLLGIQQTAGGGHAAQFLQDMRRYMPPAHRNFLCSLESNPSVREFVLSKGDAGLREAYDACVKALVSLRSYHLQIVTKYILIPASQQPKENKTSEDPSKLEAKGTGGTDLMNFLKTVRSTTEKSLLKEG
PROTOCOL_DESCRIPTION: IDO1 enzymatic assay (IDO inhibitory activity)
Format: biochemical
SETTINGS: 2 nM enzyme, 5 μM L-tryptophan, pH6.5, 30 min pre-incubation, NFK quantified by LCMS; mean values if measured multiple times; read-out: hIDO activity (IC50 in nM)
MEASURE: IC50 (nM)
Express your answer in nM, writing the number without its unit.

# example entries with known answers
OC(c1c(C2CC2)sc2cncn12)C1CC2CCCC2C1 (stereo not drawn): 7.07
CC1(C(O)c2c(C(F)(F)F)sc3cncn23)CCCC1 (racemic): 16.3
CCc1sc2cncn2c1C(O)CC1CCCC1 (racemic): 28.9
OC(c1ccccc1Cl)c1c(C2CC2)sc2cncn12 (racemic): 1120
Cc1ccccc1CC(O)c1c(C2CC2)sc2cncn12 (racemic): 431

Prompt line: Param readout= IC50; system= Recombinant full-length human IDO1 (Homo sapiens (Human), UniProt P14902); entry= CC1(C)CCC(CC(O)c2c(C3CC3)sc3cncn23)CC1 (racemic) ; returns value.
Response line: 75.2

Prompt line: Param readout= IC50; system= Recombinant full-length human IDO1 (Homo sapiens (Human), UniProt P14902); entry= CCNC1CCC(CC(O)c2c(C3CC3)sc3cncn23)CC1 (racemic) ; returns value.
Response line: 2370

Prompt line: Param readout= IC50; system= Recombinant full-length human IDO1 (Homo sapiens (Human), UniProt P14902); entry= COc1ccc(-c2sc3cncn3c2C(O)C2CCCCC2)cc1 (racemic) ; returns value.
Response line: 3090

Prompt line: Param readout= IC50; system= Recombinant full-length human IDO1 (Homo sapiens (Human), UniProt P14902); entry= "CC(C)c1sc2cncn2c1[C@@H](O)C1CCCCC1" ; returns value.
Response line: 11.7

----------
Form field: IC50 (one value per entry).
MEASUREMENT_TARGET: Recombinant full-length human IDO1 (Homo sapiens (Human), UniProt P14902)
PROTOCOL_DESCRIPTION: IDO1 enzymatic assay (IDO inhibitory activity)
Assay type: biochemical
SETTINGS: 2 nM enzyme, 5 μM L-tryptophan, pH6.5, 30 min pre-incubation, NFK quantified by LCMS; mean values if measured multiple times; read-out: hIDO activity (IC50 in nM)
Express your answer in nM, writing the number without its unit.

# example entries with known answers
OC(CC1CCCC1)c1c(C2CC2)sc2cncn12 (racemic): 25.6
Cc1sc2cncn2c1C(O)C1CC(C)(C)C1 (racemic): 13.6
CC1(C)CC(C(O)c2c(C(F)(F)F)sc3cncn23)C1 (racemic): 9.81
CC1CCCC1C(O)c1c(C2CC2)sc2cncn12 (stereo not drawn): 8.4
OC(CC1CCCC(C(F)(F)F)C1)c1c(C2CC2)sc2cncn12 (stereo not drawn): 87.6

Prompt line: Consider the compound OC(c1ccccc1F)c1c(C2CC2)sc2cncn12 (racemic) and give its measured IC50.
Response line: 56.7

Prompt line: Consider the compound CC1CCCC(CC(O)c2c(C3CC3)sc3cncn23)C1 (stereo not drawn) and give its measured IC50.
Response line: 21.4

Prompt line: Consider the compound C=Cc1sc2cncn2c1C(O)C1CCCCC1 (racemic) and give its measured IC50.
Response line: 14.4

Prompt line: Consider the compound O[C@H](c1c(C2CC2)sc2cncn12)[C@H]1CC[C@H](c2ccccc2)CC1 [Example 73a] and give its measured IC50.
Response line: 6.45
